experiment: Half life evaluated in Total Cell Extract(TCE) for determination 1.; type: ADME

# compound, half-life / h
rows = [
    ("Cc1cn(C2CC(N=[N+]=[N-])C(COP(=O)(O)OCCS)O2)c(=O)[nH]c1=O (stereo unspecified)", 2.3),
]

====

experiment: Half life evaluated in Total Cell Extract(TCE).; format: ADME; details: total cell extract (TCE)

# molecule, modifierSign, half-life [h]
rows = [
    ("Cc1cn(C2CC(N=[N+]=[N-])C(COP(=O)(OCCSC(=O)C(C)(C)C)OCCSC(=O)C(C)(C)C)O2)c(=O)[nH]c1=O (configuration not stated)", "=", 1.05),
    ("Cc1cn(C2CC(N=[N+]=[N-])C(COP(=O)(OCCSC(=O)C(C)C)OCCSC(=O)C(C)C)O2)c(=O)[nH]c1=O (configuration not stated)", "=", 0.75),
    ("Cc1cn(C2CC(N=[N+]=[N-])C(COP(=O)(O)OCCSC(=O)C(C)C)O2)c(=O)[nH]c1=O (configuration not stated)", "=", 7.1),
    ("Cc1cn(C2CC(N=[N+]=[N-])C(COP(=O)(O)OCCSC(=O)C(C)(C)C)O2)c(=O)[nH]c1=O (configuration not stated)", "=", 7.2),
    ("CC(=O)SCCOP(=O)(O)OCC1OC(n2cc(C)c(=O)[nH]c2=O)CC1N=[N+]=[N-] (configuration not stated)", "<", 0.0833),
    ("CC(=O)SCCOP(=O)(OCCSC(C)=O)OCC1OC(n2cc(C)c(=O)[nH]c2=O)CC1N=[N+]=[N-] (configuration not stated)", "<", 0.0833),
    ("Cc1cn([C@H]2C[C@H](N=[N+]=[N-])[C@@H](COP(=O)(O)O)O2)c(=O)[nH]c1=O [AZIDOTHYMIDINE MONOPHOSPHATE]", "=", 4),
]

====

EC50 values by entry
test system: CEM/TK- (Homo sapiens); assay: Antiviral activity in CEM/TK cell line infected with HIV-1 and Concentration required to inhibit the replication of HIV-1 by 50% was determined
measuredQuantity: EC50 (nM)

# molecule, measuredQuantity, reading
measured = [
    ("Cc1cn(C2CC(N=[N+]=[N-])C(COP(=O)(OCCSC(=O)C(C)C)OCCSC(=O)C(C)C)O2)c(=O)[nH]c1=O (stereo not drawn)", "EC50", 520),
    ("Cc1cn(C2CC(N=[N+]=[N-])C(COP(=O)(OCCSSCCO)OCCSSCCO)O2)c(=O)[nH]c1=O (stereo not drawn)", "EC50", 550),
    ("Cc1cn(C2CC(N=[N+]=[N-])C(COP(=O)(OCCSC(=O)c3ccccc3)OCCSC(=O)c3ccccc3)O2)c(=O)[nH]c1=O (stereo not drawn)", "EC50", 320),
]
